Entry source: ChEMBL document CHEMBL1955792

tested on: Norovirus; assay: Antiviral activity against Norovirus infected in HG23 cells assessed as inhibition of viral replication at 24 hrs by qRT-PCR analysis; type: functional; details: Norovirus, HG23, 24 h; read-out: ED50 (the source's name)
measurement.kind: pEC50
FYI, pEC50 means -log10 of a concentration in mol per litre.

# annotated cases, reported pEC50 shown
In [3]: df
Out[3]:
                                     smiles  tested_on  result_value
0  O=S1(=O)N(CCN2CCOCC2)CCN1Cc1cccc(Oc2ccccc2)c1  Norovirus          5.38
1  O=C(CNS(=O)(=O)NCc1cccc(Oc2ccccc2)c1)NCCN1CCOCC1  Norovirus          5.07
2         O=S1(=O)NCCN1Cc1cccc(Oc2ccccc2)c1  Norovirus          5.39
3  O=C(CN(Cc1ccccc1)S(=O)(=O)NCc1cccc(Oc2ccccc2)c1)NCCN1CCOCC1  Norovirus          5.42

Any idea what its pEC50 is? The compound is CCOC(=O)N1CCN(C(=O)CNS(=O)(=O)NCc2cccc(Oc3ccccc3)c2)CC1
5.09

====

test system: Norovirus; assay: Antiviral activity against Norovirus infected in HG23 cells assessed as inhibition of viral replication at 24 hrs by qRT-PCR analysis; format: functional; settings: Norovirus, HG23, 24 h; read-out: ED50 (the source's name)
Measured EC50, listed per entry.
Please give a number only; it is taken to be in µM.

>>> print(df.to_string())
                                     smiles  measurement_kind  unit_abbreviation  result_value
0  O=C(O)CCCCN1CCN(Cc2cccc(Oc3ccccc3)c2)S1(=O)=O              EC50                 µM           6.1

Continue with the next compound.
For the compound shown here, CN(CC(=O)NCCN1CCOCC1)S(=O)(=O)NCc1cccc(Oc2ccccc2)c1 , give the reported EC50.
5.2

====

experiment: Cytotoxicity against human HG23 cells at 48 hrs; assay type: cell-based; settings: hg23, 48 h, 48 h, read-out: TD50 (the source's name)
Each item that follows carries a reported CC50.
Supply the numeric figure in µM, leaving out any unit text.

Example entries begin here.
>>> print(df.to_string())
                                   compound  result_value
0  CN(CC(=O)NCCN1CCOCC1)S(=O)(=O)NCc1cccc(Oc2ccccc2)c1.Cl           235
1  O=C(CNS(=O)(=O)NCc1cccc(Oc2ccccc2)c1)NCCN1CCOCC1           330
2  Cl.O=C(CNS(=O)(=O)NCc1cccc(Oc2ccccc2)c1)N1CCN(Cc2ccccc2)CC1           120
3  CSCCC(NS(=O)(=O)NCc1cccc(Oc2ccccc2)c1)C(=O)NCCN1CCOCC1.Cl (racemic; 7d)           230

Here is another compound to look at.
Data request, read-out CC50, for O=C(CN(Cc1ccccc1)S(=O)(=O)NCc1cccc(Oc2ccccc2)c1)NCCN1CCOCC1
55

====

test: Cytotoxicity against human HG23 cells at 48 hrs; format: cell-based; details: HG23 cells, read-out: TD50
The threshold is 80 µM. Values of CC50 at 48 h beneath it are tagged true; values meeting or exceeding it are tagged false.

Recorded results for 2 molecules are shown here.
>>> df
                                   molecule  category
0  CSCCC(NS(=O)(=O)NCc1cccc(Oc2ccccc2)c1)C(=O)NCCN1CCOCC1 (racemic; 6d)     false
1  O=C(CN(Cc1ccccc1)S(=O)(=O)NCc1cccc(Oc2ccccc2)c1)NCCN1CCOCC1      true

Dear colleague, could you confirm whether CC50 at 48 h of O=S1(=O)N(CCN2CCOCC2)CCN1Cc1cccc(Oc2ccccc2)c1 falls below 80 µM? Thanks.
true

Check COC(=O)C1CCC(NC(=O)CNS(=O)(=O)NCc2cccc(Oc3ccccc3)c2)CC1 (centres undefined) too.
true

Follow-up entry: CCOC(=O)N1CCN(C(=O)CNS(=O)(=O)NCc2cccc(Oc3ccccc3)c2)CC1
false

Okay, and O=C(CNS(=O)(=O)NCc1cccc(Oc2ccccc2)c1)N1CCN(Cc2ccccc2)CC1 ?
false

And what about the molecule CN(CC(=O)NCCN1CCOCC1)S(=O)(=O)NCc1cccc(Oc2ccccc2)c1 ?
false

What do you get for O=C(CNS(=O)(=O)NCc1cccc(Oc2ccccc2)c1)NCc1ccccc1 ?
true

Continue with O=C(CNS(=O)(=O)NCc1cccc(Oc2ccccc2)c1)NCCN1CCOCC1
false
